Cited source for all entries: patent US20240279345A1

Target: α5β1 integrin on U87MG cells (human, UniProt P08648 42-1049; P05556 21-798)
Sequence (P08648 42-1049 limits assumed, chain 1 of 2): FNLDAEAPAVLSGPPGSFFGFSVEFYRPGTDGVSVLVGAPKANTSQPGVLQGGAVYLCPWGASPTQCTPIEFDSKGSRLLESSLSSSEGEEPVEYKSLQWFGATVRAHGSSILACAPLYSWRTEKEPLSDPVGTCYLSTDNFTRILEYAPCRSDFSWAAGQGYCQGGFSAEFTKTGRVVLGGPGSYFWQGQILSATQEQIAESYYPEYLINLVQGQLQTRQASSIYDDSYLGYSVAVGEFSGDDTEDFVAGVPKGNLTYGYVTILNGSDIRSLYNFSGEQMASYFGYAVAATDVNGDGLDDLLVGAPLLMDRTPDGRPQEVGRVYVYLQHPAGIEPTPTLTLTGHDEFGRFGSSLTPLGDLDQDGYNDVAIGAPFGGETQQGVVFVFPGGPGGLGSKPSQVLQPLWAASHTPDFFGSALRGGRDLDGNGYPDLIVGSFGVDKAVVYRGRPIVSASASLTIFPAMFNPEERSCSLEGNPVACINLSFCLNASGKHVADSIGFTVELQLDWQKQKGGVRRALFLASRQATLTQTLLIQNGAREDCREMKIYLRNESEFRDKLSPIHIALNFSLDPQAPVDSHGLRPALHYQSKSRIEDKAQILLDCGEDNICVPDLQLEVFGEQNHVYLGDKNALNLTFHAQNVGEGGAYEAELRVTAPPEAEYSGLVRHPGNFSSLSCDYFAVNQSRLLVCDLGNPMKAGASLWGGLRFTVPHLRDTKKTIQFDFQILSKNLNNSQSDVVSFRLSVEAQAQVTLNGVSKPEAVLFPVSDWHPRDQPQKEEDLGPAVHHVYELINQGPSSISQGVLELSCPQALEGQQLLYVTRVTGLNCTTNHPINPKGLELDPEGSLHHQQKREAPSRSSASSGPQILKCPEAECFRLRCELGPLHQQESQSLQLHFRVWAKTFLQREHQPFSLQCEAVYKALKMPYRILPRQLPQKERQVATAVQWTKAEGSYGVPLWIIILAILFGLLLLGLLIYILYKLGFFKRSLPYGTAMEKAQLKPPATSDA
Sequence (P05556 21-798 limits assumed, chain 2 of 2): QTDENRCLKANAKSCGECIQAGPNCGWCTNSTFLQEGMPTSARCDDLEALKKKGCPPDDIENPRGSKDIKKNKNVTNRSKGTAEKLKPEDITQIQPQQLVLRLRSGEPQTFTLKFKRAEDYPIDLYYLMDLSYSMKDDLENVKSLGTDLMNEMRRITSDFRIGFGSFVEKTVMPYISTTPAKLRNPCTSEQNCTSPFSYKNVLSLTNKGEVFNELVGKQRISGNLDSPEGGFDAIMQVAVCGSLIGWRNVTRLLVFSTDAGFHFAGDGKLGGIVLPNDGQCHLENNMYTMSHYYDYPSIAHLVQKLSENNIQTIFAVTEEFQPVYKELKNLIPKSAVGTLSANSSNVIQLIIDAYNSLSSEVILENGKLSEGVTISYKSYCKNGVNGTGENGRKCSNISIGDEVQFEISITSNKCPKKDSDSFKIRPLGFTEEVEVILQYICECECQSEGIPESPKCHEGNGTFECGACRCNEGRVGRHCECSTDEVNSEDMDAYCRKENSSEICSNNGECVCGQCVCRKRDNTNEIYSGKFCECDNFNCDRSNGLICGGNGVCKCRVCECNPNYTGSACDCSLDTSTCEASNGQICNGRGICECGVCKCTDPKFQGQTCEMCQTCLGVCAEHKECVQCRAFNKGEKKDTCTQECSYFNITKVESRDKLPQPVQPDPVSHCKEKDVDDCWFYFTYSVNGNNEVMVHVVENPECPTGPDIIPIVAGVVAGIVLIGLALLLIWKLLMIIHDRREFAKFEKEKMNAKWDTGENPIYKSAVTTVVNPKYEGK
Assay: cell-based or functional assay
ENDPOINT LABEL: Cell Counts (Curve Top) (cells)
Give the quantity in cells, number only.

Problem: Please list Cell Counts (Curve Top) recorded for the binder A-15B08 IgG4 Chimera (antibody, V domains shown) VH: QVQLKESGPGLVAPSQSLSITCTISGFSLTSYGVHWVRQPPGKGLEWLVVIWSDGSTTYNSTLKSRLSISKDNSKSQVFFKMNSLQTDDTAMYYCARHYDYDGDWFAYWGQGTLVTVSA VL: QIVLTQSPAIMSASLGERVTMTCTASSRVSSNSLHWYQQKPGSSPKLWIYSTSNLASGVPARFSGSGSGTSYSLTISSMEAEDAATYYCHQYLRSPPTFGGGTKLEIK
Solution: 33800

Problem: Please list Cell Counts (Curve Top) recorded for the binder A-15B08-T62A IgG4 Chimera (antibody, V domains shown) VH: QVQLKESGPGLVAPSQSLSITCTISGFSLTSYGVHWVRQPPGKGLEWLVVIWSDGSTTYNSALKSRLSISKDNSKSQVFFKMNSLQTDDTAMYYCARHYDYDGDWFAYWGQGTLVTVSA VL: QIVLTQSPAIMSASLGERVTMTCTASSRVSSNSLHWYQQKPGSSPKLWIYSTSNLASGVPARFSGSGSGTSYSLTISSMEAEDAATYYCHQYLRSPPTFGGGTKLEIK
Solution: 35400

Problem: Please list Cell Counts (Curve Top) recorded for the binder C-14D12 IgG4 Chimera (antibody, V domains shown) VH: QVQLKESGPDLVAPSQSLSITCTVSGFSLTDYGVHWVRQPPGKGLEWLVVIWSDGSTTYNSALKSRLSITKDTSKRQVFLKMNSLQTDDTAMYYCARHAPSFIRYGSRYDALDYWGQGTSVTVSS VL: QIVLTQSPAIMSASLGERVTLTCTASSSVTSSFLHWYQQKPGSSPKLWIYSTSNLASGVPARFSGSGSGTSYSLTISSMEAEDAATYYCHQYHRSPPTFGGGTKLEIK
Solution: 37200

Problem: Please list Cell Counts (Curve Top) recorded for the binder A2-7A05 IgG4 Chimera (antibody, V domains shown) VH: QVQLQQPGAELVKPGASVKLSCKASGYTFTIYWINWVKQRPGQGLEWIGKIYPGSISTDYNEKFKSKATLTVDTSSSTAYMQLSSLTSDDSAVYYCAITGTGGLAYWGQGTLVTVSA VL: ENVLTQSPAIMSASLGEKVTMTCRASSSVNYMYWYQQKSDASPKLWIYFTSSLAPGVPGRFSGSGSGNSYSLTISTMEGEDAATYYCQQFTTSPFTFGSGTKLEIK
Solution: 38200
